Give %Inh for every item shown.
Tested on: DMPK;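 note: KINOMEscan kinase panel screen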
measurement_parameters: concentration: 1 μM, replicates: in singlicate; n = 1
Numbers only, in %.

> print(dat)
                                   compound  readout.value
1  Cc1ccc(C)c(NC(=O)Nc2ccc(C)c(-c3ccc(C(=O)Nc4ccncc4)cc3)c2)c1              4
2  CC(C)NCC(Cc1ccccc1)NC(=O)c1cc(Br)c(-c2ccnc3[nH]ccc23)s1.Cl.Cl (stereo not shown)             32
3  Nc1ncnc2scc(-c3ccc(NC(=O)Cc4cc(F)ccc4F)cc3)c12.O=C(O)C(F)(F)F              6
4  Cn1cc(-c2cnc(N)c3c(-c4ccc5c(c4)CCN5C(=O)Cc4ccccc4)csc23)cn1              0

Your task in this section: give %Inh for each listed record.
1. CN(c1ccc(NC(=O)Nc2cccc(Cl)c2)cc1)c1ccnc(N)n1.Cl
2. Cc1cc(-c2ccnc(Nc3cccc(C#N)c3)n2)cc(C)c1O
3. Cc1ccc(NC(=O)c2cccc(N3CCCCC3)c2)cc1-c1ccc(C(=O)NCC2CC2)cc1

RESULT:
[4, 0, 3]
